# test.system: 4,4'-diapophytoene desaturase (4,4'-diaponeurosporene-forming) (Staphylococcus aureus (strain Mu50 / ATCC 700699))
# assay.procedure: Inhibition of CrtN in vancomycin-intermediate Staphylococcus aureus Mu50 assessed as reduction in staphyloxanthin levels after 48 hrs by spectrophotometric method-based pigment inhibition assay
Items are presented alongside their recorded IC50.
parameter: IC50 (nM)

CN(C/C=C/c1ccc(C(F)(F)F)cc1)Cc1ccc2c(c1)OCCO2.Cl; 1.2
CN(C/C=C/C=C/C=C/c1ccc(C(F)(F)F)cc1)Cc1ccc2c(c1)OCCO2.Cl; 1.2

* * *

Parameter IC50: see the listing below.
# test.system: 4,4'-diapophytoene desaturase (4,4'-diaponeurosporene-forming) (Staphylococcus aureus (strain MW2), UniProt Q8NUQ6)
# Sequence (Q8NUQ6 whole entry): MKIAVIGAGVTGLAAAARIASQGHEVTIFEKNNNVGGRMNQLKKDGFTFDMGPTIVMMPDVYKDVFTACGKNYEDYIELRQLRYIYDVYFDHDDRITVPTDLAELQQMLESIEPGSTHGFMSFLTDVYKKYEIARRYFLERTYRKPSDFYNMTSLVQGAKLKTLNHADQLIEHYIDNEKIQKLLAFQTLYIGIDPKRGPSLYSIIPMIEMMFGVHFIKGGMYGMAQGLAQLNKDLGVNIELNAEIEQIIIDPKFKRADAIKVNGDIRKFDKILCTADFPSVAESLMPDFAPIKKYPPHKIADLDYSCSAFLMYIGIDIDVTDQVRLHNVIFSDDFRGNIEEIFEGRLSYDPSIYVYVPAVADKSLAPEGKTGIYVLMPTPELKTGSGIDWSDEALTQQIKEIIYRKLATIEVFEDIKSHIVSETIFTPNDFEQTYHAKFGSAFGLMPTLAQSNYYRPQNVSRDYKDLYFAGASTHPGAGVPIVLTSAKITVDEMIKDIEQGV
# assay.procedure: Inhibition of CrtN in methicillin-resistant Staphylococcus aureus LAC USA300 assessed as reduction in staphyloxanthin levels after 48 hrs by spectrophotometric method-based pigment inhibition assay
# Parameters: species or system Staphylococcus aureus subsp. aureus USA300
parameter: IC50 (nM)

CN(C/C=C/C=C/c1ccc(C(F)(F)F)cc1)Cc1ccc2c(c1)OCCO2.Cl; 5.5
CN(C/C=C/C=C/C=C/c1ccc(C(F)(F)F)cc1)Cc1ccc2c(c1)OCCO2.Cl; 3.7
CN(C/C=C/c1ccc(C(F)(F)F)cc1)Cc1ccc2c(c1)OCCO2.Cl; 5.9
COc1ccc(/C=C/CN(C)Cc2ccc3c(c2)CCCCC3)cc1.Cl; 7.7

* * *

# test.system: 4,4'-diapophytoene desaturase (4,4'-diaponeurosporene-forming) (Staphylococcus aureus (strain Newman), UniProt O07855)
# Sequence (O07855 whole entry): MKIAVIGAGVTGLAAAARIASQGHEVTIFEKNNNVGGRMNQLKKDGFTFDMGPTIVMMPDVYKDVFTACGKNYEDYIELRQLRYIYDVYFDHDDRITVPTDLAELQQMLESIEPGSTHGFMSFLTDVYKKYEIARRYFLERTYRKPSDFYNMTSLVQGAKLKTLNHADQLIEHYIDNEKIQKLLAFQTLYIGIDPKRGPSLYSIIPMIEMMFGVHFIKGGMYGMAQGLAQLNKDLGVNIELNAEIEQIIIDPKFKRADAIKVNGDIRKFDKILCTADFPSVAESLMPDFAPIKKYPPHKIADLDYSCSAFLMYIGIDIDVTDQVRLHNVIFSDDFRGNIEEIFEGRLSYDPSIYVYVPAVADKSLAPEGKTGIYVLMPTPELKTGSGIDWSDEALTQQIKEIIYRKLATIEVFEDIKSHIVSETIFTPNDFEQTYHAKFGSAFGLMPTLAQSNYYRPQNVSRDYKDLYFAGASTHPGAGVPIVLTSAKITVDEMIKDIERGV
# assay.procedure: Inhibition of CrtN in Staphylococcus aureus Newman assessed as reduction in staphyloxanthin levels after 48 hrs by spectrophotometric method-based pigment inhibition assay
# Design: species or system Staphylococcus aureus subsp. aureus str. Newman
parameter: IC50

CN(C/C=C/c1cccc([N+](=O)[O-])c1)Cc1ccc2c(c1)OCCO2; > 1000 nM
CN(C/C=C/C1CCCCC1)Cc1ccc2c(c1)OCCO2; > 1000 nM
C/C=C/CN(C)Cc1ccc2c(c1)OCCO2; > 1000 nM
CN(C/C=C/c1ccccc1[N+](=O)[O-])Cc1ccc2c(c1)OCCO2; > 1000 nM
CN(C/C=C/c1ccccc1Cl)Cc1ccc2c(c1)OCCO2; 90.3 nM
CN(C/C=C/c1ccc(C(C)(C)C)cc1)Cc1ccc2c(c1)OCCO2; 156 nM
CN(C/C=C/c1ccc(Cl)cc1Cl)Cc1ccc2c(c1)OCCO2; 15 nM
CN(C/C=C/c1ccccc1C(F)(F)F)Cc1ccc2c(c1)OCCO2; > 1000 nM
CN(C/C=C/c1cccc2ccccc12)Cc1ccc2c(c1)OCCO2; > 1000 nM
COc1cccc(/C=C/CN(C)Cc2ccc3c(c2)OCCO3)c1; > 1000 nM
CN(C/C=C/c1ccc(C#N)cc1)Cc1ccc2c(c1)OCCO2; 19.2 nM
